meta.source: ChEMBL document CHEMBL5058577

Tested on: Fibroblast
assay.notes: Multiplex assay against human fibroblast
Type: toxicity, cell-based
assay.context: 48 h, 10 µM, compound concentration 10 uM, replicate 2
Non-standard residues stand in square brackets, D forms with d. Residues, ends and D or L forms follow the SMILES beside them.
Decide using Population Tubulin-Different-Phenotype (%): a value greater than or equal to 60% is 1 (yes), a smaller one is 0 (no).

## Input Test whether the compound CC(C)C[C@@H]1NC(=O)[C@@H](C(C)C)NC(=O)[C@@H]2CCCN2C(=O)[C@@H](CC(=O)O)NC(=O)[C@@H](Cc2c[nH]c3ccccc23)NC1=O [BQ-123] (cyclo(L[dW][dD]P[dV])) records Population Tubulin-Different-Phenotype (%) of 60% or higher.
## Output 0 (no)

## Input Test whether the compound "C[C@H](NC(=O)CNC(=O)c1cccc(Cl)c1)c1ccccc1" records Population Tubulin-Different-Phenotype (%) of 60% or higher.
## Output 1 (yes)

## Input Test whether the compound "COc1ccc2[nH]c(I)c(CCNC(C)=O)c2c1" records Population Tubulin-Different-Phenotype (%) of 60% or higher.
## Output 0 (no)

## Input Test whether the compound O=C(NCCNCC(O)COc1ccc(O)cc1)N1CCOCC1.O=C(NCCNCC(O)COc1ccc(O)cc1)N1CCOCC1.O=C(O)/C=C/C(=O)O (stereo not drawn) [XAMOTEROL FUMARATE] records Population Tubulin-Different-Phenotype (%) of 60% or higher.
## Output 0 (no)

## Input Test whether the compound "CCc1nn2c(C)cc(C)nc2c1Cc1ccc(-c2nnc(C3CCNCC3)o2)cc1" records Population Tubulin-Different-Phenotype (%) of 60% or higher.
## Output 1 (yes)

## Input Test whether the compound "CC(C)C[C@H](CO)Nc1nc(S[C@@H](C)c2ccccc2)nc2nc(N)sc12" records Population Tubulin-Different-Phenotype (%) of 60% or higher.
## Output 1 (yes)

## Input Test whether the compound "COCCn1c(C)c(C)s/c1=N\C(=O)C1C(C)(C)C1(C)C" records Population Tubulin-Different-Phenotype (%) of 60% or higher.
## Output 1 (yes)

====

Assign Population Hoechst High Intensity Objects (%) to each entry below.
System: U2OS
assay.notes: Multiplex assay against U2OS
Assay type: toxicity, cell-based
assay.context: human, 24 h, 10 µM, compound concentration 10 uM, replicate 2
Respond with the bare value in %.

## Input Lab note: U2OS assay, enter Population Hoechst High Intensity Objects (%) for "N[C@](CC1c2ccccc2Oc2ccccc21)(C(=O)O)[C@H]1C[C@@H]1C(=O)O" here
## Output 0

## Input Lab note: U2OS assay, enter Population Hoechst High Intensity Objects (%) for "O=c1nc2[nH]c3ccccc3nc-2c(=O)[nH]1" here
## Output 2

## Input Lab note: U2OS assay, enter Population Hoechst High Intensity Objects (%) for Cc1ccc(OCC(O)C(C)NC(C)C)c2c1CCC2.Cl (centres undefined) here
## Output 2

## Input Lab note: U2OS assay, enter Population Hoechst High Intensity Objects (%) for "COc1c(Nc2ccc(S(C)(=O)=O)nc2C)ncnc1OC1CCN(C(=O)OC(C)C)CC1" here
## Output 5

## Input Lab note: U2OS assay, enter Population Hoechst High Intensity Objects (%) for "COc1cc2nc(N3CCN(C(=O)COc4c(OC)cccc4C(C)C)CC3)nc(N)c2cc1OC.Cl.Cl" here
## Output 12

## Input Lab note: U2OS assay, enter Population Hoechst High Intensity Objects (%) for COCCCN1CCC(NC(=O)c2cc(Cl)c(N)c3c2OCC3)CC1 [PRUCALOPRIDE] here
## Output 1

## Input Lab note: U2OS assay, enter Population Hoechst High Intensity Objects (%) for "COc1cc(OC2CCN(C(C)=O)CC2)ccc1C(=O)N1CCC(N2C(=O)OCc3ccccc32)CC1" here
## Output 2

## Input Lab note: U2OS assay, enter Population Hoechst High Intensity Objects (%) for "Cc1cc(=O)n(C)c2cc(N3C(=O)CC[C@H](NS(=O)(=O)CC(C)C)[C@H]3c3ccc(Cl)cc3)ccc12" here
## Output 2

## Input Lab note: U2OS assay, enter Population Hoechst High Intensity Objects (%) for "CCCCC[C@H](O)/C=C/[C@H]1[C@H](O)CC(=O)[C@@H]1CCCCCCC(=O)O" here
## Output 0

====

Assign Population Membrane Permeable-Phenotype (%) to each entry below.
Test system: U2OS
assay.notes: Multiplex assay against U2OS
Assay type: toxicity, cell-based
assay.context: human, 12 h, 10 µM, compound concentration 10 uM, replicate 1
Please make sure the unit comes right after the number.

## Input Identify measured Population Membrane Permeable-Phenotype (%) associated with CN1C[C@H](C(=O)N[C@]2(C)O[C@@]3(O)[C@@H]4CCCN4C(=O)[C@H](Cc4ccccc4)N3C2=O)C[C@@H]2c3cccc4[nH]cc(c34)C[C@H]21.CS(=O)(=O)O [DIHYDROERGOTAMINE MESYLATE]
## Output 5%

## Input Identify measured Population Membrane Permeable-Phenotype (%) associated with "CC(C)(C)c1ccc(CSc2cnn(C(C)(C)C)c(=O)c2Cl)cc1"
## Output 5%

## Input Identify measured Population Membrane Permeable-Phenotype (%) associated with CCC(=O)OCC(=O)[C@@]1(OC(=O)CC)[C@@H](C)C[C@H]2[C@@H]3CCC4=CC(=O)C=C[C@]4(C)[C@@]3(Cl)[C@@H](O)C[C@@]21C [BECLOMETHASONE DIPROPIONATE]
## Output 67%

## Input Identify measured Population Membrane Permeable-Phenotype (%) associated with "Cc1nn(C)c2nc(NNC(=O)Nc3cc(Cl)nc(Cl)c3)cc(C(C)C)c12"
## Output 75%

## Input Identify measured Population Membrane Permeable-Phenotype (%) associated with COc1cc2nc(N3CCN(C(=O)c4ccco4)CC3)nc(N)c2cc1OC.Cl [PRAZOSIN HYDROCHLORIDE]
## Output 12%

## Input Identify measured Population Membrane Permeable-Phenotype (%) associated with "Cc1cc(NC(=O)NCCN2CCC(O)(Cc3ccccc3)CC2)c2ccccc2n1"
## Output 6%

## Input Identify measured Population Membrane Permeable-Phenotype (%) associated with "Cn1cc(C(=O)OCC2CCN(CCNS(C)(=O)=O)CC2)c2ccccc21"
## Output 10%

====

Assign Population Normal (%) to each entry below.
Test system: HEK-293T
assay.notes: Multiplex assay against HEK293T
Type: toxicity, cell-based
assay.context: human, 12 h, 10 µM, compound concentration 10 uM, replicate 1
Non-standard residues stand in square brackets, D forms with d. Residues, ends and D or L forms follow the SMILES beside them.
Respond with the bare value in %.

## Input Identify measured Population Normal (%) associated with COc1cc2nc(N3CCN(C(=O)c4ccco4)CC3)nc(N)c2cc1OC.Cl [PRAZOSIN HYDROCHLORIDE]
## Output 89

## Input Identify measured Population Normal (%) associated with "Cc1nn(C)c2nc(NNC(=O)Nc3cc(Cl)nc(Cl)c3)cc(C(C)C)c12"
## Output 88

## Input Identify measured Population Normal (%) associated with Cc1ccc(OCC(O)C(C)NC(C)C)c2c1CCC2.Cl (configuration not stated)
## Output 96

## Input Identify measured Population Normal (%) associated with "COCCn1c(C)c(C)s/c1=N\C(=O)C1C(C)(C)C1(C)C"
## Output 81

## Input Identify measured Population Normal (%) associated with "COc1ccc2c(c1OCc1ccccc1)C[C@@H](C(=O)O)N(C(=O)C(c1ccccc1)c1ccccc1)C2"
## Output 93

## Input Identify measured Population Normal (%) associated with "CN1CCN(c2ccc(Nc3c4ccccc4nc4ccccc34)cc2)CC1.Cl.Cl.O"
## Output 98

## Input Identify measured Population Normal (%) associated with "N[C@](CC1c2ccccc2Oc2ccccc21)(C(=O)O)[C@H]1C[C@@H]1C(=O)O"
## Output 91

## Input Identify measured Population Normal (%) associated with "Cc1sc2c(c1C)C(c1ccc(Cl)cc1)=N[C@H](CC(=O)OC(C)(C)C)c1nnc(C)n1-2"
## Output 92

## Input Identify measured Population Normal (%) associated with "Nc1nc(CC(=O)Nc2ccc(CCNC[C@H](O)c3ccccc3)cc2)cs1"
## Output 92

## Input Identify measured Population Normal (%) associated with "COc1ccc2[nH]c(I)c(CCNC(C)=O)c2c1"
## Output 91

## Input Identify measured Population Normal (%) associated with "C[C@H](NC(=O)CNC(=O)c1cccc(Cl)c1)c1ccccc1"
## Output 92

## Input Identify measured Population Normal (%) associated with CC(C)C[C@@H]1NC(=O)[C@@H](C(C)C)NC(=O)[C@@H]2CCCN2C(=O)[C@@H](CC(=O)O)NC(=O)[C@@H](Cc2c[nH]c3ccccc23)NC1=O [BQ-123] (cyclo(L[dW][dD]P[dV]))
## Output 92

## Input Identify measured Population Normal (%) associated with "COc1cc(Nc2ncc3c(n2)-c2ccc(Cl)cc2C(c2c(F)cccc2OC)=NC3)ccc1C(=O)O"
## Output 90

## Input Identify measured Population Normal (%) associated with "Cc1cc(-c2ccc3c(c2)CC[C@H]3N2CC3(CCN(C(=O)Cc4cn5cc(C)sc5n4)CC3)C2)ncn1"
## Output 88

## Input Identify measured Population Normal (%) associated with "C=CCN1C[C@H](C(=O)N(CCCN(C)C)C(=O)NCC)C[C@@H]2c3cccc4[nH]cc(c34)C[C@H]21"
## Output 87

## Input Identify measured Population Normal (%) associated with "Nc1nc(-c2ccco2)c2cnn(Cc3ccccc3F)c2n1"
## Output 91

## Input Identify measured Population Normal (%) associated with "CC(C)C[C@H](CO)Nc1nc(S[C@@H](C)c2ccccc2)nc2nc(N)sc12"
## Output 89
